Source listed as patent US20040043043A1.

- EXPERIMENTAL PROTOCOL: Chemical stability study: vitamin contents on storage at 20 °C/ambient RH
- Type: physicochemical
- COND: Example 4 syrup, batch 2, 20 °C/ambient RH
Would you kindly list Content after 18 months for each of these molecules?

Known results for molecules:
>  <CPD SMILES>
C=C1CC[C@H](O)C/C1=C/C=C1\CCC[C@]2(C)[C@@H]([C@H](C)CCCC(C)C)CC[C@@H]12

>  <RECORDED VALUE>
502 IU/5 ml

$$$$
>  <CPD SMILES>
CC(C)(CO)[C@@H](O)C(=O)NCCC(=O)O

>  <RECORDED VALUE>
9.2, 9.2 mg/5 ml

$$$$
>  <CPD SMILES>
O=C(O)CCCC[C@@H]1SC[C@@H]2NC(=O)N[C@@H]21

>  <RECORDED VALUE>
100 μg/5 ml

$$$$
>  <CPD SMILES>
CC1=C(/C=C/C(C)=C/C=C/C(C)=C/CO)C(C)(C)CCC1

>  <RECORDED VALUE>
1862 IU/5 ml

$$$$
>  <CPD SMILES>
O=C1O[C@H]([C@@H](O)CO)C(O)=C1O

>  <RECORDED VALUE>
34.9 mg/5 ml

$$$$
>  <CPD SMILES>
Cc1cc2nc3c(=O)[nH]c(=O)nc-3n(C[C@H](O)[C@H](O)[C@H](O)CO)c2cc1C

>  <RECORDED VALUE>
1.19, 1.19 mg/5 ml

$$$$

Please look at the following molecule next.
Problem: # input molecule: Nc1nc2ncc(CNc3ccc(C(=O)N[C@@H](CCC(=O)O)C(=O)O)cc3)nc2c(=O)[nH]1 ; wanted: its Content after 18 months
Result: 244 μg/5 ml

---

- EXPERIMENTAL PROTOCOL: Chemical stability study: vitamin contents on storage at 20 °C/ambient RH
- Assay type: physicochemical
- COND: Example 1 syrup, production batch 2, time 0
Please go through the items and note down their Initial vitamin content.
One number for each entry, in μg/10 ml.

Answered cases to consult:
>  <CPD SMILES>
CC1=C(/C=C/C(C)=C/C=C/C(C)=C/CO)C(C)(C)CCC1

>  <Initial vitamin content [μg/10 ml]>
628

$$$$
>  <CPD SMILES>
Nc1nc2ncc(CNc3ccc(C(=O)N[C@@H](CCC(=O)O)C(=O)O)cc3)nc2c(=O)[nH]1

>  <Initial vitamin content [μg/10 ml]>
92.2

$$$$

Problem: I'd like to know its Initial vitamin content. The molecule in question is C=C1CC[C@H](O)C/C1=C/C=C1\CCC[C@]2(C)[C@@H]([C@H](C)CCCC(C)C)CC[C@@H]12
Result: 8.1

---

- EXPERIMENTAL PROTOCOL: Chemical stability study: vitamin contents on storage at 20 °C/ambient RH
- Format: physicochemical
- COND: Example 1 syrup, batch 2, 20 °C/ambient RH
TEST READOUT: Vitamin content after 18 months (μg/10 ml)
Give bare numbers, in μg/10 ml.

>  <CPD SMILES>
Nc1nc2ncc(CNc3ccc(C(=O)N[C@@H](CCC(=O)O)C(=O)O)cc3)nc2c(=O)[nH]1

>  <RECORDED VALUE>
72.5

$$$$

For the next question, use this compound.
Problem: Look up Vitamin content after 18 months: CC1=C(/C=C/C(C)=C/C=C/C(C)=C/CO)C(C)(C)CCC1
Result: 525
